Tested on: Clostridium sporogenes DSM 1664
Test: fold change of Tryptamine concentration vs plate DMSO controls (fold change (ratio)); higher = more amine produced, active = hit call of the paper (significant change in both replicates, either direction);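 for the amine columns active = adjusted P below 0.05 in both replicates with a change the same way and a mean fold change under 0.8 or over 1.25; inactive = the rest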
Settings: incubation time: 27 h, anaerobic, 37 °C
Counter-ions that a name gives are not always drawn.
Outcomes: t (active), f (inactive)

# molecule, group
rows = [
    ("CC(C)COC(=O)OCN1C(=O)CN(CCN2CC(=O)N(COC(=O)OCC(C)C)C(=O)C2)CC1=O [Sobuzoxane] (20 µM)", "f"),
    ("CC(C(=O)O)c1ccc(C(=O)c2cccs2)cc1 (stereo unspecified) [Suprofen] (20 µM)", "f"),
    ("CCCCC1C(=O)N(c2ccccc2)N(c2ccc(O)cc2)C1=O (stereo unspecified) [Oxyphenbutazone] (20 µM)", "f"),
    ("Nc1ccc(S(=O)(=O)Nc2ccc(Cl)nn2)cc1 [Sulfachloropyridazine] (20 µM)", "f"),
    ("Nc1ccc(S(N)(=O)=O)cc1 [Sulfanilamide] (20 µM)", "f"),
    ("NC(=O)NC1NC(=O)NC1=O (stereo unspecified) [Allantoin] (20 µM)", "f"),
    ("OC[C@H]1O[C@H](O[C@]2(CCl)O[C@H](CCl)[C@@H](O)[C@@H]2O)[C@H](O)[C@@H](O)[C@H]1Cl [Sucralose] (50 µM)", "t"),
    ("CC(=O)O[C@]1(C(C)=O)CC[C@H]2[C@@H]3C=C(C)C4=CC(=O)CC[C@@H]4[C@H]3CC[C@@]21C [Nomegestrol acetate] (20 µM)", "f"),
    ("CCN(CC)CCOC(=O)C(Cc1cccc2ccccc12)CC1CCCO1 (stereo unspecified) [Nafronyl oxalate] (20 µM)", "f"),
    ("N#Cc1ccc(Oc2ccc3c(c2)COB3O)cc1 [Crisaborole] (20 µM)", "f"),
    ("COc1ccc(CC2c3cc(OC)c(OC)cc3CC[N+]2(C)CCC(=O)OCCCCCOC(=O)CC[N+]2(C)CCc3cc(OC)c(OC)cc3C2Cc2ccc(OC)c(OC)c2)cc1OC (stereo unspecified) [Atracurium besylate] (20 µM)", "f"),
    ("OCc1cc(C(O)CNCCCCCCOCCCCc2ccccc2)ccc1O (stereo unspecified) [Salmeterol] (20 µM)", "f"),
    ("CC(NCCC(c1ccccc1)c1ccccc1)c1ccccc1 (stereo unspecified) [Fendiline hydrochloride] (20 µM)", "f"),
    ("C[N+](C)(C)CCCCCC[N+](C)(C)C [Hexamethonium dibromide dihydrate] (20 µM)", "f"),
    ("CCN(CC)CCNC(=O)c1cc(Br)c(N)cc1OC [Bromopride] (20 µM)", "f"),
    ("NC[C@H]1CC[C@H](C(=O)O)CC1 [Tranexamic acid] (20 µM)", "f"),
    ("Cc1c(N(C)C)c(=O)n(-c2ccccc2)n1C [Amidopyrine] (20 µM)", "f"),
    ("Cc1ccc(-c2ncc(Cl)cc2-c2ccc(S(C)(=O)=O)cc2)cn1 [Etoricoxib] (20 µM)", "f"),
    ("CN(C)c1ccc(O)c2c1C[C@H]1C[C@H]3[C@H](N(C)C)C(=O)C(C(N)=O)=C(O)[C@@]3(O)C(=O)C1=C2O [Minocycline hydrochloride] (20 µM)", "t"),
    ("Cc1cccc(C)c1NC(=O)C(C)N (stereo unspecified) [Tocainide hydrochloride] (20 µM)", "f"),
    ("NS(=O)(=O)c1cc2c(cc1Cl)NC(CC1CCCC1)NS2(=O)=O (stereo unspecified) [Cyclopenthiazide] (20 µM)", "f"),
    ("CC(=O)c1ccc(S(=O)(=O)NC(=O)NC2CCCCC2)cc1 [Acetohexamide] (20 µM)", "f"),
    ("CN(C)/N=N/c1[nH]cnc1C(N)=O [Dacarbazine] (20 µM)", "f"),
    ("NC(=O)c1cc[n+](CC2=C(C(=O)[O-])N3C(=O)[C@@H](NC(=O)[C@@H](c4ccccc4)S(=O)(=O)O)[C@H]3SC2)cc1 [Cefsulodin sodium salt] (20 µM)", "f"),
    ("CC[C@H](C)C(=O)O[C@H]1CCC=C2C=C[C@H](C)[C@H](CC[C@@H]3C[C@@H](O)CC(=O)O3)[C@H]21 [Mevastatin] (20 µM)", "f"),
    ("CCN1CCN(Cc2ccc(Nc3ncc(F)c(-c4cc(F)c5nc(C)n(C(C)C)c5c4)n3)nc2)CC1 [Abemaciclib] (20 µM)", "f"),
    ("CC(c1cc2ccccc2s1)N(O)C(N)=O (stereo unspecified) [Zileuton] (20 µM)", "f"),
    ("CC(=O)OCC(=O)[C@@]1(O)CC[C@H]2[C@@H]3CCC4=CC(=O)C=C[C@]4(C)[C@@]3(F)[C@@H](O)C[C@@]21C [Isoflupredone acetate] (20 µM)", "f"),
    ("Cc1ccc(S(=O)(=O)NC(=O)NN2CC3CCCC3C2)cc1 (stereo unspecified) [Gliclazide] (20 µM)", "f"),
    ("CN(C)CCCN1c2ccccc2Sc2ccc(Cl)cc21 [Chlorpromazine hydrochloride] (20 µM)", "f"),
    ("Cc1cc(C2CCCCC2)n(O)c(=O)c1 [Ciclopirox ethanolamine] (20 µM)", "f"),
]

----------
Test system: Klebsiella aerogenes DSM 30053
Test: growth (OD595) fold change vs plate DMSO controls (fold change (ratio)); higher = more growth
Conditions: incubation time: 27 h, anaerobic, 37 °C
Counter-ions that a name gives are not always drawn.
growth listing for selected molecules.

# molecule, tested_system, growth
measured = [
    ("CCN1CCCC1CNC(=O)c1cc(S(N)(=O)=O)ccc1OC (stereo not given) [Sulpiride] (20 µM)", "Klebsiella aerogenes DSM 30053", 0.981),
    ("CCOc1ccccc1C(N)=O [Ethenzamide] (20 µM)", "Klebsiella aerogenes DSM 30053", 1.01),
    ("CCN1CCN(Cc2ccc(Nc3ncc(F)c(-c4cc(F)c5nc(C)n(C(C)C)c5c4)n3)nc2)CC1 [Abemaciclib] (20 µM)", "Klebsiella aerogenes DSM 30053", 1.04),
    ("Nc1ccc(O)c(C(=O)O)c1 [Mesalamine] (20 µM)", "Klebsiella aerogenes DSM 30053", 0.985),
    ("N=C(N)NC(=O)Cc1c(Cl)cccc1Cl [Guanfacine hydrochloride] (20 µM)", "Klebsiella aerogenes DSM 30053", 1.03),
    ("CC(C(O)c1ccc(O)cc1)N1CCC(Cc2ccccc2)CC1 (stereo not given) [Ifenprodil tartrate] (20 µM)", "Klebsiella aerogenes DSM 30053", 1.03),
    ("C[N+](C)(CCOc1ccccc1)Cc1ccccc1.O=C([O-])c1cc2ccccc2cc1O [Bephenium hydroxynaphthoate] (20 µM)", "Klebsiella aerogenes DSM 30053", 0.976),
    ("CC(=O)S[C@@H]1CC2=CC(=O)CC[C@]2(C)[C@H]2CC[C@@]3(C)[C@@H](CC[C@@]34CCC(=O)O4)[C@H]12 [Spironolactone] (20 µM)", "Klebsiella aerogenes DSM 30053", 0.916),
    ("C[C@@H]1C[C@H]2[C@@H]3C[C@H](F)C4=CC(=O)C=C[C@]4(C)[C@@]3(F)[C@@H](O)C[C@]2(C)[C@@]1(O)C(=O)CO [Flumethasone] (20 µM)", "Klebsiella aerogenes DSM 30053", 1.01),
    ("Cc1c(NC(=O)c2cccnc2)c(=O)n(-c2ccccc2)n1C [Nifenazone] (20 µM)", "Klebsiella aerogenes DSM 30053", 1.03),
    ("CC(=O)NCCCS(=O)(=O)O [Acamprosate calcium] (20 µM)", "Klebsiella aerogenes DSM 30053", 0.963),
    ("COc1ccc(CCC(=O)c2c(O)cc(O[C@@H]3O[C@H](CO)[C@@H](O)[C@H](O)[C@H]3O[C@@H]3O[C@@H](C)[C@H](O)[C@@H](O)[C@H]3O)cc2O)cc1O [Neohesperidin Dihydrochalcone (Nhdc)] (50 µM)", "Klebsiella aerogenes DSM 30053", 1.01),
    ("Cc1cc(C(C)(C)C)cc(C)c1CC1=NCCN1 [Xylometazoline hydrochloride] (20 µM)", "Klebsiella aerogenes DSM 30053", 1.01),
    ("Nc1c(Br)cc(Br)cc1CN[C@H]1CC[C@H](O)CC1 [Ambroxol hydrochloride] (20 µM)", "Klebsiella aerogenes DSM 30053", 0.958),
    ("CO[C@@]1(NC(=O)C(C(=O)O)c2ccc(O)cc2)C(=O)N2C(C(=O)O)=C(CSc3nnnn3C)CO[C@@H]21 (stereo not given in full) [Moxalactam disodium salt] (20 µM)", "Klebsiella aerogenes DSM 30053", 1.02),
]

----------
Test system: Klebsiella aerogenes DSM 30053
Assay: fold change of Cadaverine concentration vs plate DMSO controls (fold change (ratio)); higher = more amine produced, active = hit call of the paper (significant change in both replicates, either direction)
Conditions: incubation time: 27 h, anaerobic, 37 °C
Counter-ions that a name gives are not always drawn.
fold change of Cadaverine concentration listing for selected molecules.
observable: fold change of Cadaverine concentration

# molecule, recorded_value
data = [
    ("C[C@@H](O[C@H]1OCCN(Cc2n[nH]c(=O)[nH]2)[C@H]1c1ccc(F)cc1)c1cc(C(F)(F)F)cc(C(F)(F)F)c1 [Aprepitant] (20 µM)", 0.993),
    ("Cc1cc(NS(=O)(=O)c2ccc(N)cc2)nc(C)n1 [Sulfisomidine] (20 µM)", 0.992),
    ("CC(=O)OCC(=O)[C@@]1(O)CC[C@H]2[C@@H]3CCC4=CC(=O)CC[C@]4(C)[C@H]3[C@@H](O)C[C@@]21C [Cortisol acetate] (20 µM)", 1.01),
    ("O=C1c2ccccc2C(=O)C1c1ccccc1 [Phenindione] (20 µM)", 0.976),
    ("O=c1[nH]c(=O)n([C@H]2C[C@H](O)[C@@H](CO)O2)cc1C(F)(F)F [Trifluridine] (20 µM)", 0.975),
    ("CCC1(C)CC(=O)NC1=O (stereo not given) [Ethosuximide] (20 µM)", 1.03),
    ("Cc1cc2nc3ccc(=[N+](C)C)cc-3sc2cc1N [Tolonium chloride] (20 µM)", 0.984),
    ("O=C(O)c1cn(C2CC2)c2cc(N3CCNCC3)c(F)cc2c1=O [Ciprofloxacin hydrochloride monohydrate] (20 µM)", 0.938),
    ("CNCC(O)c1ccc(O)c(O)c1 (stereo not given) [Racepinephrine hydrochloride] (20 µM)", 1.03),
    ("COc1ccc(CC2c3cc(OC)c(OC)cc3CC[N+]2(C)CCC(=O)OCCCCCOC(=O)CC[N+]2(C)CCc3cc(OC)c(OC)cc3C2Cc2ccc(OC)c(OC)c2)cc1OC (stereo not given) [Atracurium besylate] (20 µM)", 1.03),
    ("O=C(O)CNC(=O)C(CS)Cc1ccccc1 (stereo not given) [Thiorphan] (20 µM)", 1.02),
    ("COc1ccc(-c2cc(=S)ss2)cc1 [Anethole-trithione] (20 µM)", 0.986),
    ("COCCCOc1cc(C[C@@H](C[C@H](N)[C@@H](O)C[C@H](C(=O)NCC(C)(C)C(N)=O)C(C)C)C(C)C)ccc1OC [Aliskiren hemifumarate] (20 µM)", 0.987),
    ("COCCCOc1ccnc(C[S+]([O-])c2nc3ccccc3[nH]2)c1C (stereo not given) [Rabeprazole sodium salt] (20 µM)", 1.03),
    ("C[C@H](CCc1ccccc1)NC[C@H](O)c1ccc(O)c(C(N)=O)c1 [Dilevalol] (20 µM)", 1.01),
]

Hey, just so you know, these numbers are from the supplement of paper PMC12494721.
